Protocol details: Cmax in female Wistar rat brain at 10 mg/kg, ip measured 24 hrs post dose by LC-MS/MS analysis
Assay type: ADME, organism-based
Endpoint label: Cmax (ng/mL)

- O=C(Nc1ccc(-c2nc(-c3ccc(Cl)cc3)no2)cc1)[C@@H]1CC(=O)N(C[C@@H]2CCCNC2)C1: 157

###

Protocol details: AUClast in male Wistar rat plasma at 10 mg/kg, ip administrated as single dose and measured 24 hrs post dose by LC-MS/MS analysis
Assay type: ADME, organism-based
Endpoint label: AUC(0-t) at 24 h (ng·h/mL)

• O=C(Nc1ccc(-c2nc(-c3ccc(Cl)cc3)no2)cc1)[C@@H]1CC(=O)N(C[C@@H]2CCCNC2)C1 = 7370

All values here come from ChEMBL document CHEMBL6109135.
